- Tested on: DU-145 prostate
- TEST_NAME: NCI-60 one-dose screen, 48 h
- CONDITIONS_USED: 10 µM unless noted
- Protocol: Cells are grown in 96 well plates and exposed to the test compound for 48 hours. Compounds are tested at a single concentration, which is 10^-5 M for most compounds. The reported endpoint is percent growth (GI% or GIPRCNT), where numbers from 0 - 100% represent growth inhibition, and numbers from -100% - 0 represent cell death. For example, a value of 40 represents 60% growth inhibition. A value of 0 means no net growth occurred over the course of the experiment. […]
Compounds without any hit were thinned out: in the full panel of roughly 83,000, 20% have a hit. Calls of active or inactive are those of the source. Rule for the calls: active = growth percent below 10; inactive = the rest.
Respond using exactly one of the listed classes: active, inactive

Task item: Could you please tell me the result logged for `COc1ccc(-c2csc(N(C(=O)N3CCN(c4cc5c(cc4F)c(=O)c(C(=O)O)cn5C4CC4)CC3)c3ccccc3)n2)cc1` in this assay?
Reply: inactive

Task item: Each molecule tested received a call. Report the one for `CCCCOC(=O)OCc1cc(=O)c(O)co1` .
Reply: inactive

Task item: Returns: the outcome recorded for COc1cc2c(c(OC)c1OC)CCC(c1cccc(C(=O)Nc3cccc(Br)c3)c1)O2 (stereo not given) in this assay.
Reply: inactive

Task item: Test call for this molecule, please: `C=C(C)[C@@H]1CC[C@]2(C(=O)OC)CC[C@]3(C)[C@H](CC[C@@H]4[C@@]5(C)C/C(=C/NC(N)=S)C(=O)C(C)(C)[C@@H]5CC[C@]43C)[C@@H]12`
Reply: inactive

Task item: Recorded test outcome, item `Fc1ccc(Nc2nc3nonc3nc2Nc2ccc(I)cc2)cc1`
Reply: inactive

Task item: Hey, what did the test say about CCOC(=O)CNP(=O)(OC[C@@H](Cc1ccccc1)NC(=O)c1cc2ccccc2s1)Oc1ccccc1 (stereo not given in full) ?
Reply: inactive

Task item: Give the logged outcome of this assay for the following molecule: `O=C(Cn1cc(CN2CCCCCC2)nn1)Nc1ccc2c(ccn2Cc2ccccc2)c1`
Reply: inactive

Task item: Which outcome did this test record for the molecule `O=S(=O)(NCCNc1nccc(-c2c(-c3cccc(F)c3)nc3occn23)n1)c1ccc(Br)cc1` ?
Reply: inactive

Task item: Record request — test call for `C=CCn1c(SCC(=O)Nc2ccc(C(=O)/C=C/c3ccc(Cl)cc3)cc2)nnc1-c1cc(-c2ccc(S(N)(=O)=O)cc2)nc2ccccc12`
Reply: inactive

Task item: // param item: `C1=C(N2CCCC2)CCC1` ; yields the recorded call
Reply: inactive

Task item: Test call, this molecule: `CCCCC(=O)Nc1ncc(Cc2ccc(Cl)cc2)s1`
Reply: inactive

Task item: Recorded test outcome, item `c1ccc(C2=NN[C@H](c3cn(-c4ccccc4)nc3-c3ccccc3)C2)cc1`
Reply: inactive

Task item: Hi team, can someone confirm the assay call for `O=C1/C(=C/c2ccc(Cl)cc2)COc2ccc(O)cc21` ?
Reply: inactive

Task item: Answer briefly: the call reported for `O=C(O)CCCN1C(=O)/C(=C/C(Cl)=C/c2ccccc2)SC1=S` in this assay.
Reply: inactive

Task item: # outcome recorded in this test, key = `C#COc1cccc(Nc2ncnc3ncc(NC(=O)CCl)cc23)c1`
Reply: active

Task item: Hi, do you know how `N#Cc1cnc(NCCc2ccncc2)nc1-n1cnc2ccccc21` came out in this test?
Reply: inactive

Task item: Assay outcome for CCCCCCC1(C)NCCO1 (stereo not given) : what was it?
Reply: inactive

Task item: Hi, do you know how `N=C(N)c1ccc(-c2ccc(-c3ccc(Cl)cc3)s2)nc1` came out in this test?
Reply: active

Task item: # lookup: test call for `CN1CCN(c2ccc(C(=O)Nc3cccc(C#Cc4cccc5[nH]nc(N)c45)c3)cc2C(F)(F)F)CC1`
Reply: active

Task item: Which outcome was assigned to `O=C1Nc2ccccc2/C1=C\c1nc(-c2ccccc2)n2ccccc12` in this test?
Reply: inactive

====

- System: IGROV1 ovarian
- TEST_NAME: NCI-60 one-dose screen, 48 h
- CONDITIONS_USED: 10 µM unless noted
Compounds without any hit were thinned out: in the full panel of roughly 83,000, 20% have a hit. Active and inactive are the calls of the source. The calls were made as follows: active = growth percent below 10; inactive = the rest.
Tick one outcome: active, inactive

Task item: I would be grateful if you could indicate the recorded call for `O=C1/C(=C/c2ccc(-c3ccc(Br)cc3)o2)SC(=S)N1CCc1ccc(O)cc1` .
Reply: inactive

Task item: Kindly provide the recorded test outcome for the following compound: `CN1CCN(Cc2ccc(NC(=O)c3cncc(C#Cc4cnc(N)c5ccccc45)c3)cc2C(F)(F)F)CC1`
Reply: active

Task item: Outcome logged for CCCC(O)Cn1ncc(C(=O)OCC)c1NC(=O)NCc1ccccc1F (stereo not drawn) in this assay:
Reply: inactive

Task item: How was `C=CCn1c(SCC(=O)Nc2ccc(C(=O)/C=C/c3ccc(Cl)cc3)cc2)nnc1-c1cc(-c2ccc(S(N)(=O)=O)cc2)nc2ccccc12` classified in this test?
Reply: inactive

Task item: Entry `N#Cc1cccc(NC(=O)c2oc3ccccc3c2-c2cnn(-c3ccccc3)c2)c1` : call = ?
Reply: inactive

Task item: Please let me know the test result on file for `CCN(CC)CCOc1ccc(-c2c(-c3ccccc3)c(=O)oc3ccccc23)cc1` .
Reply: inactive

Task item: State the result this test recorded for `O=C(COc1ccc(-c2nc3ccccc3[nH]2)cc1)N=Nc1c(O)[nH]c2ccc(Cl)cc12` .
Reply: inactive

Task item: What did this assay record as the result for `COc1cnc2c(c1)C(=O)c1c-2n(CCCNCCO)c(=O)c2ccncc12` ?
Reply: inactive

Task item: What call does the record list for CC1=C(CCC(C)N(C)Cc2ccc(OCCCN3CCCC3)cc2)C(C)(C)CCC1 (stereo not drawn) ?
Reply: inactive

Task item: Check the results log: what was the call for `COc1ccc(-c2cc(-c3ccc(Cl)cc3)c(C#N)c(=O)n2CCCCC(=O)Nc2ccccc2N)cc1` ?
Reply: inactive

Task item: For `C=C1C(=O)O[C@H]2[C@H]1CC/C(COC(=O)N[C@H]1C[C@H](O[C@H]3C[C@](O)(C(=O)CO)Cc4c(O)c5c(c(O)c43)C(=O)c3c(OC)cccc3C5=O)O[C@@H](C)[C@H]1O)=C\CC[C@@]1(C)O[C@@H]21` , which call appears in the assay record?
Reply: inactive

Task item: Each compound tested received a call. Report the one for `Cn1c(=O)c2[nH]c(N/N=C/c3ccccc3Br)nc2n(C)c1=O` .
Reply: inactive

Task item: Could you please tell me the result logged for COc1cc(N2C(=O)[C@H](O)C2c2ccc(SC)cc2)cc(OC)c1OC (stereo partly drawn) in this assay?
Reply: inactive

Task item: Could you kindly confirm the outcome this assay logged for `Cc1nc(-c2ccccc2)cc2c(O)c(C(=O)NN)[nH]c(=O)c12` ?
Reply: active

Task item: For CCC(C)N(c1ccc(Cl)cc1)c1nc(-c2ccc(Br)cc2)cs1 (stereo not drawn) , what call appears in the results of this test?
Reply: inactive

Task item: Test call for this compound, please: `O=C(CSc1nc2ccc([N+](=O)[O-])cc2[nH]1)Nc1ccc(F)cc1`
Reply: inactive

Task item: What is the recorded call for this compound in the test? `O=S(=O)(NCCCNc1nccc(-c2c(-c3ccc(F)c(O)c3)nc3occn23)n1)c1ccccc1`
Reply: inactive

Task item: What is the recorded call for this compound in the test? `COC(=O)c1c2c(c(C)[n+]([O-])c1C)C(=O)C(NCc1ccc(Cl)cc1)=CC2=O`
Reply: inactive

====

- System: HCT-116 colon
- TEST_NAME: NCI-60 one-dose screen, 48 h
- CONDITIONS_USED: 10 µM unless noted
The panel holds about 83,000 compounds, 20% with a hit somewhere; the sample as a whole holds those more often. The source made the active and inactive calls. The calls were made as follows: active = growth percent below 10; inactive = the rest.
Hi! Could you answer with just one of these? 1 for active, -1 for inactive

Task item: Could you check what this test reported for `O=C(Nn1c2c(sc1=Nc1ccccc1)C(=O)c1ccccc1C2=O)c1cc2ccc1CCc1ccc(cc1)CC2` ?
Reply: -1

Task item: Please state the recorded outcome for this molecule: `COC(=O)c1c2c(c(C)[n+]([O-])c1C)C(=O)C(NCc1ccc(Cl)cc1)=CC2=O`
Reply: -1

Task item: Returns: the outcome recorded for `O=c1c2cc(-c3ccccc3)sc2nc2sc(-c3ccccc3)nn12` in this assay.
Reply: -1

Task item: Entry `COc1ccc2c3c([nH]c2c1)C(=O)c1nc(C)ccc1C3=O` : call = ?
Reply: -1

Task item: Answer briefly: the call reported for COc1ccc(C(=O)Nc2cccc(C3CC(=O)c4c(cc(OC)c(OC)c4OC)O3)c2)cc1 (centres undefined) in this assay.
Reply: -1

Task item: Could you kindly confirm the outcome this assay logged for `O=C1c2cccnc2C(=O)c2c1c(C(=O)NCCn1ccnc1)c1ccccn21` ?
Reply: 1

Task item: For `N#Cc1cccc(NC(=O)c2oc3ccccc3c2-c2cnn(-c3ccccc3)c2)c1` , which call appears in the assay record?
Reply: -1

Task item: Per the assay record, what outcome was assigned to `O=C1c2cccc3cccc(c23)C(=O)N1N1C(=O)c2cccc3c(N4CCOCC4)ccc(c23)C1=O` ?
Reply: -1

Task item: Look up the recorded call for `O=C(Cn1c(=O)sc2nc3ccccc3nc21)Nc1ncc(Cc2cccc(Cl)c2Cl)s1` in this test.
Reply: -1

Task item: Record lookup: outcome of this test for `CCCCCC(=O)OCC(=O)O[C@@H]1C[C@]2(C(C)C)O[C@@]1(C)[C@@H]1CC[C@@H](C)[C@H]1[C@@H]2OC(=O)/C=C/c1ccccc1` ?
Reply: -1

Task item: Test call for this molecule, please: `COC(=O)[C@H]1CCCN1C[C@@H](O)CN1C(=O)/C(=C\c2cc(OC)c(OC)c(OC)c2)c2ccccc21`
Reply: -1

Task item: What is the recorded call for this molecule in the test? `Cc1ccc(-c2nc(/C=C3/C(=O)Nc4ccccc43)c3ccccn23)cc1`
Reply: -1

Task item: What call does the record list for COc1ccc(CC(C#N)c2cc3ccccc3[nH]2)cc1 (centres undefined) ?
Reply: -1

Task item: Fill in: this test's call for `COC1=CC(c2ccc[nH]2)=N/C1=C\c1[nH]c(C)c(C(=O)OCc2ccccc2)c1C` is ___
Reply: 1

Task item: State the result this test recorded for `COc1cc2oc(-c3cccc(NC(=O)c4cccc(Br)c4)c3)cc(=O)c2c(OC)c1OC` .
Reply: -1

Task item: Please indicate how the test categorized `CO/N=C(/C)c1ccc(NC(=O)CSc2nnc(-c3ccncc3)n2-c2ccccc2)cc1` .
Reply: 1

Task item: Test call, this molecule: `O=C(OCc1ccc2c(Cl)cc(Cl)c(O)c2n1)n1cncn1`
Reply: -1

Task item: Hi, sorry to bother you, what did the test record for `CCc1ccc(Oc2cn[nH]c2-c2ccc(OCCc3ccc(F)cc3)cc2O)cc1` ?
Reply: -1

Task item: Which result was noted for this molecule in the test: `CCC(=C(c1ccc(OCCN2CCCC2)cc1)c1ccc(OCCN2CCCC2)cc1)c1ccc(Cl)cc1`
Reply: 1
